# TEST SYSTEM: glucocorticoid receptor (GR) (Homo sapiens)
# METHOD: Ligand binding assay (GR BIND), 3H-dexamethasone displacement in MDA-MB-453 cell lysate
# MEASUREMENT CONTEXT: GR BIND Ki, Table 1
// classify: if (Ki < 4 nM) 1 (yes) else 0 (no)

* COc1ccccc1CCN(CC(O)CC(F)(F)F)C(=O)[C@H]1CCC2=Cc3c(cnn3-c3ccc(F)cc3)C[C@@]21C (stereo partly drawn) [Compound 86] | 0 (no)

Okay, now this compound:
Is Ki of C[C@]12Cc3cnn(-c4ccc(F)cc4)c3C=C1CC[C@@H]2C(=O)Nc1ccccc1 [Compound 6] strictly below 4 nM?
0 (no)

###

# TEST SYSTEM: human GR (Homo sapiens)
# Construct: U937 cells contain an endogenous glucocorticoid receptor (GR); endogenous in cells; host or cells: U937 cells stably transfected with the TNF-alpha promoter/beta-lactamase reporter
# Sequence (P04150 1-777): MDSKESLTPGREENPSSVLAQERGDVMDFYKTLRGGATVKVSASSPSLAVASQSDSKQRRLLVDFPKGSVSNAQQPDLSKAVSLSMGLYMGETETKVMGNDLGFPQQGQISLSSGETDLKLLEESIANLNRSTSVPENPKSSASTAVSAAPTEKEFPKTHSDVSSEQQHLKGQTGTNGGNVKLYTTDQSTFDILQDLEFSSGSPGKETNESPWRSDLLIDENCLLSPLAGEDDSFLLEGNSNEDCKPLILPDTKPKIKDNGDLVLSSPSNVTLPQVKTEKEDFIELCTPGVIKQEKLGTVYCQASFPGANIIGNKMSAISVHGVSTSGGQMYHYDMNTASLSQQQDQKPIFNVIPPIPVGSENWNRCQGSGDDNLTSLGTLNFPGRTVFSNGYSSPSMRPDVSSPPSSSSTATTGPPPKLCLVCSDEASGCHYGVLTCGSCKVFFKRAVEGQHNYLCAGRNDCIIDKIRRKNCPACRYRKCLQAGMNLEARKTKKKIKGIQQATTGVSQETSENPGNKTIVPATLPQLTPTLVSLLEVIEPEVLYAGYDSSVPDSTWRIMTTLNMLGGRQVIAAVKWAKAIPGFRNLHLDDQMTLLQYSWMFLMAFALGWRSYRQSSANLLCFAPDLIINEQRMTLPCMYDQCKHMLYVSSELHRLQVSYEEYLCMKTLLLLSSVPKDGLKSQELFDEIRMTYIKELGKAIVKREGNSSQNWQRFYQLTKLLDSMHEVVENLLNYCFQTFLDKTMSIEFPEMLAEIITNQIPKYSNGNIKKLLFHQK
# METHOD: Transrepression Assay (GITAR), TNFα-β-lactamase reporter gene in U937 cells
# Type: cell-based
# MEASUREMENT CONTEXT: U937 cells; activity repressed by 100 nM dexamethasone = 100%; Table 1
# 1 = Transrepression U937 Cells GITAR Emax below 50% (exclusive); -1 = Transrepression U937 Cells GITAR Emax at/above 50%

Take a look at these entries with their results.
• C[C@]12Cc3cnn(-c4ccc(F)cc4)c3C=C1CC[C@@H]2C(=O)N(CCc1ccccc1F)CC(O)CC(F)(F)F (some centres unmarked) [Compound 87] = -1
• C[C@]12Cc3cnn(-c4ccc(F)cc4)c3C=C1CC[C@@H]2C(=O)N(CCc1ccccc1F)CC(O)C(F)(F)F (some centres unmarked) [Compound 84] = -1
• C[C@]12Cc3cnn(-c4ccc(F)cc4)c3C=C1CC[C@@H]2C(=O)N(CCc1ccccc1F)CC(O)CC(F)(F)F (some centres unmarked) [Compound 95] = -1
• CCCN(CC1CCCO1)C(=O)[C@H]1CCC2=Cc3c(cnn3-c3ccc(F)cc3)C[C@@]21C (some centres unmarked) = 1

Consider the additional compound presented here.
hey, is Transrepression U937 Cells GITAR Emax for CCN(CC(O)C(F)(F)F)C(=O)[C@H]1CCC2=Cc3c(cnn3-c3ccccc3)C[C@@]21C (some centres unmarked) lower than 50% or not?
-1

Ref: patent US8338472B2
